assay: NCI Yeast Anticancer Drug Screen. Data for the bub3 strain (AID 167); conditions: S. cerevisiae bub3 mutant strain, at 50.0 µM (retest, dose inferred, filed as 5.0), active compounds read high
Compounds without any hit were thinned out: in the full panel of roughly 79,000, 15% have a hit.
So basically: growth inhibition at 90% or higher? That is T. Lower than 90%? That is F.

compound	qualitative-label
O=C(Nc1ccccc1)OCCc1ccc(Br)cc1	F
CC(=O)Nc1ccc(-c2cnc3ccccc3c2)cc1	F
Cc1cc(N)c2ccccc2[n+]1CCCCCCCCCC[n+]1c(C)cc(N)c2ccccc21	T
c1cc[c]([Sn]([S]c2cccc3cccnc23)([S]c2cccc3cccnc23)[c]2ccccc2)cc1	T
CC(C)C(=O)NNc1ccccc1	T

I'd appreciate it if you could say whether `CCCCCCCCCCCCCCCCOP(=O)([O-])OCC[N+](C)(C)C` has growth inhibition at least equal to 90%.
T

Lookup `CCCCCCCCCCCCCCCCN(CC)CC`
T

Lookup `C/C(CCSCc1ccccc1)=N/NC(N)=S`
F

Lookup `O=C(c1ccco1)N(C(=S)N1CCN(c2ccccn2)CC1)c1ccccc1`
F

Lookup `NC(=S)N/N=C1/C(=O)c2cccc3cccc1c23`
F

Lookup COc1cc2c(cc1O)C1Cc3ccc(OC)c(O)c3C(C2)N1C (configuration not stated)
F

Lookup `Nc1ccc2nc3c(nc2c1)C(=O)c1ccccc1-3`
T
